- measured-on: PIKFYVE (Homo sapiens, UniProt Q9Y2I7)
- Sequence (Q9Y2I7 whole entry): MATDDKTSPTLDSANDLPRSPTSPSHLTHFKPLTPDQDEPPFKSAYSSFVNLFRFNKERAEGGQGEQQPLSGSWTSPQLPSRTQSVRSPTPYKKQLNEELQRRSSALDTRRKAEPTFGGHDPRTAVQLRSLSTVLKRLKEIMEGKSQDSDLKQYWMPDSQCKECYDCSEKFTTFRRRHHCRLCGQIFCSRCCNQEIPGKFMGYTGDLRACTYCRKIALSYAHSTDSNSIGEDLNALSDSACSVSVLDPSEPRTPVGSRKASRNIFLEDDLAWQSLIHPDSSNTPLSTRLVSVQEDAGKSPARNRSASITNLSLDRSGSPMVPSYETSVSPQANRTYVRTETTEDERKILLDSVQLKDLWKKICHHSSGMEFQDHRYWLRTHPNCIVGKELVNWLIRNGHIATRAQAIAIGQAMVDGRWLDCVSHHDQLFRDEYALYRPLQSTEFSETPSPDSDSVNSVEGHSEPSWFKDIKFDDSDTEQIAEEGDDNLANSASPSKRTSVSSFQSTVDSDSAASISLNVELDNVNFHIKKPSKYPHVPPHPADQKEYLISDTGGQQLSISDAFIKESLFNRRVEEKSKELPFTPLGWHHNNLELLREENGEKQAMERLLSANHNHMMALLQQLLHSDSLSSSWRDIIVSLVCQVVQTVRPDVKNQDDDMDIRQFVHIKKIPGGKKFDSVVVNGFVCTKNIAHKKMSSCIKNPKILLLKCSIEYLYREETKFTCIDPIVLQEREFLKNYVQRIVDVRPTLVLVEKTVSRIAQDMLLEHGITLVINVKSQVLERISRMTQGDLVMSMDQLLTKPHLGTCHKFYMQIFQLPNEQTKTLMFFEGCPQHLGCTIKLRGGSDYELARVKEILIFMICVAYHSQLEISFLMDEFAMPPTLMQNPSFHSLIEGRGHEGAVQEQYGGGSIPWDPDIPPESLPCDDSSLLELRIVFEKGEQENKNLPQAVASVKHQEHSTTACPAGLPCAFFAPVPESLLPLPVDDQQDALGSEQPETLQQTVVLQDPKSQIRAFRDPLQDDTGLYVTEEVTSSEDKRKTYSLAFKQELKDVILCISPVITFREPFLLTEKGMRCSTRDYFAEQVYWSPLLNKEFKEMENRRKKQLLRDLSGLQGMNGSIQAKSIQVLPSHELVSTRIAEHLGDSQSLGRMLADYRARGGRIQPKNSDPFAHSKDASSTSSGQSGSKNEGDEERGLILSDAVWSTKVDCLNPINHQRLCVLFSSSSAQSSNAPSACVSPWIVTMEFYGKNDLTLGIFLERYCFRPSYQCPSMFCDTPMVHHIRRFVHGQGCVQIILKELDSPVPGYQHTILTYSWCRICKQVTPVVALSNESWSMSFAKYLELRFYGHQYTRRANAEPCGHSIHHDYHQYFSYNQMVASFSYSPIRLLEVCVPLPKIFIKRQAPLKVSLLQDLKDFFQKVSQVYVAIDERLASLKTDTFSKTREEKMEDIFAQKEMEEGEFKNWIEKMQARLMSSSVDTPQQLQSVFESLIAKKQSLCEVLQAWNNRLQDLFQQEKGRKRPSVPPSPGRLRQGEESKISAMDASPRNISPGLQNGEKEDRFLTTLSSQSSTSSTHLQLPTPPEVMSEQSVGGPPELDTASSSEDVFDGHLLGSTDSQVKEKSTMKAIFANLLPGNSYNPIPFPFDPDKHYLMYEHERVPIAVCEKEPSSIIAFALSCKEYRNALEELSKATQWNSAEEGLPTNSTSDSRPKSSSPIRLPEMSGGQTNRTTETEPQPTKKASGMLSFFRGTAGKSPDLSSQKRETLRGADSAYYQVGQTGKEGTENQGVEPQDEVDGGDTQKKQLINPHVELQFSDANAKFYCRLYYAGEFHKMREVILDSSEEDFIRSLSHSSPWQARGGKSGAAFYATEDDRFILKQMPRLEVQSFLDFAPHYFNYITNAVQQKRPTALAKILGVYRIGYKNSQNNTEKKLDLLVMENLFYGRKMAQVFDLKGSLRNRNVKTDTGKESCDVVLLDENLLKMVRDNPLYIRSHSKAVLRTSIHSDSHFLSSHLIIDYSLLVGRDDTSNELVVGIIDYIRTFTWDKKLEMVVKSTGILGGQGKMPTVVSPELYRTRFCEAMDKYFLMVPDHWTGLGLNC
- assay-method-text: PIKFYVE assay (luciferase ADP-Glo kinase assay, Promega)
- Format: biochemical
- run-parameters: Table 2
- Protocol: The activity of Compounds 1-20 was measured using a PIKFYVE assay (luciferase ADP-Glo kinase assay available from Promega Corp. of Madison, WI). The activity of Compounds 39-90 was also measured using a PIKFYVE assay (luciferase ADP-Glo kinase assay available from Promega Corp. of Madison, WI).
measured-attribute: IC50

Some solved cases for reference:
Cc1cccc(-c2ccn(-c3nc(NCCc4ccccn4)cc(N4CCOCC4)n3)n2)c1    < 50 nM
COc1nc(N2CCOCC2)c(C)c(-n2ccc(-c3cccc(C)c3)n2)n1    < 500 nM
Cc1cccc(-c2ccn(-c3cc(N4CCOCC4)nc(OC[C@H](O)c4ccccc4)n3)n2)c1    < 5 nM
COCC(O)c1nc(N2CCOCC2)cc(-n2ccc(-c3cccc(C)c3)n2)n1 (centres unmarked)    < 50 nM
Fc1ccc(-c2cnn(-c3cc(N4CC[C@H]5OCC[C@H]54)nc(CCCc4ccccn4)n3)c2)cc1    < 10000 nM
COCc1cc(-c2ccccc2)n(-c2cc(N3CCOCC3)nc(OCCc3cnn(C)c3)n2)n1    < 50 nM
COc1nc(N2CCOCC2)cc(-n2ccc(-c3cccc(C)c3)n2)n1    < 50 nM

Kindly review the next compound as well.
### Prompt # return recorded IC50 for entry CNc1nc(N2CCOCC2)cc(-n2nc(-c3ccccc3)cc2C)n1
### Response < 500 nM

----------
Listing of entries alongside the reported IC50.
- measured-on: PIKFYVE (Homo sapiens, UniProt Q9Y2I7)
- assay-method-text: PIKFYVE assay (luciferase ADP-Glo kinase assay, Promega)
- Format: biochemical
- run-parameters: Table 2

COc1cc(N2CCOCC2)nc(-n2ccc(-c3cccc(C)c3)n2)n1    < 500 nM
c1cc(-c2cc(N3CCOCC3)nc(OCC3CCCO3)n2)n[nH]1 (stereo not drawn)    < 500 nM

Turning now to a further compound:
### Prompt Answer with reported IC50 of COC(c1ccccc1)c1nc(N2CCOCC2)cc(-n2ccc(-c3ccccc3)n2)n1 (stereo not drawn)
### Response < 50 nM

----------
- measured-on: PIKFYVE (Homo sapiens, UniProt Q9Y2I7)
- assay-method-text: PIKFYVE assay (luciferase ADP-Glo kinase assay, Promega)
- Assay type: biochemical
- run-parameters: Table 2
Below is a list of entries, each paired with its recorded IC50 value.

Below, each entry is followed by its recorded IC50 result.
OCc1nc(N2CCOCC2)cc(-n2ccc(-c3ccccc3)n2)n1    < 50 nM
Cc1cccc(-c2ccn(-c3cc(N4CCOCC4)ncn3)n2)c1    < 500 nM
Clc1ccc(-c2ccn(-c3cc(N4CCOCC4)nc(OCCc4ccccn4)n3)n2)cc1    < 500 nM
CC(C)(C)c1ccn(-c2cc(N3CCOCC3)nc(OCC(O)CO)n2)n1 (centres unmarked)    < 10000 nM
Cc1cccc(-c2ccn(-c3nc(NCCc4cnccn4)cc(N4CCOCC4)n3)n2)c1    < 50 nM

### Prompt Given Cc1cccc(-c2ccn(-c3cc(N4CCOCC4)nc(Cc4ccccc4)n3)n2)c1 , respond with its IC50.
### Response < 500 nM

### Prompt Give me measured IC50, please, for this compound: Cc1cccc(-c2ccn(-c3cc(N4CCOCC4)nc(N4CCCC4=O)n3)n2)c1
### Response < 50 nM

### Prompt Tell us which IC50 value is on record for c1ccc(-c2cn(-c3cc(N4CCOCC4)nc(OCCc4ccccn4)n3)cn2)cc1
### Response < 10000 nM
